# ASSAY_METHOD_TEXT: Cmax in mouse at 2 mg/kg, po or 1 mg/kg, iv
# Assay type: ADME, organism-based
# CONDITIONS: in vivo
READOUT_NAME: Cmax (nM)
Dear colleague, please return just the value in nM, with no unit written.

Prompt: Bench note: what Cmax did `Cc1ccc2cccc(NC(=O)c3ccc(OC(C)C)cc3)c2n1` show?
Completion: 260

---

# ASSAY_METHOD_TEXT: Ratio of drug level in mouse brain to plasma at 10 mg/kg, ip measured after 1 hr
# Format: ADME, organism-based
# CONDITIONS: read-out: BPR
READOUT_NAME: Kp at 1 h

Prompt: Bench note: what Kp at 1 h did `Cc1ccc2cccc(NC(=O)c3ccc(OC(C)C)cc3)c2n1` show?
Completion: 2.83 to 3

---

# ASSAY_METHOD_TEXT: AUC in mouse at 2 mg/kg, po or 1 mg/kg, iv
# Type: ADME, organism-based
# CONDITIONS: in vivo
READOUT_NAME: AUC (µM·h)
Dear colleague, please return just the value in µM·h, with no unit written.

Prompt: Bench note: what AUC did `Cc1ccc2cccc(NC(=O)c3ccc(OC(C)C)cc3)c2n1` show?
Completion: 0.41
